Measured on: PPARγ (Homo sapiens)
Construct: purchased Invitrogen Corporation, Carlsbad, Calif
Test details: Commercial PPARγ binding assay (Invitrogen, PPAR-LBD/Fluormone PPAR Green complex)
Test conditions: compound at 3 μM; average (SEM) of three experiments in quadruplicate
Property measured: PPARγ ligand binding (Fluormone displacement signal)

Molecule	Measured on	Value measured
CCc1ccc(C(O)COc2ccc(CC3(C)SC(=O)NC3=O)cc2)nc1 (stereo not drawn) [Compound 5]	PPARγ (Homo sapiens)	226 (8)
CCc1ccc([C@@H](O)COc2ccc(CC3(C)SC(=O)NC3=O)cc2)nc1 (stereo partly drawn) [Compound 8]	PPARγ (Homo sapiens)	241 (10)
CCc1ccc([C@H](O)COc2ccc(CC3(C)SC(=O)NC3=O)cc2)nc1 (stereo partly drawn) [Compound 9]	PPARγ (Homo sapiens)	233 (9)
CCc1ccc(CCOc2ccc(CC3(C)SC(=O)NC3=O)cc2)nc1 (stereo not drawn) [Compound 6]	PPARγ (Homo sapiens)	223 (7)

Ask | Param item = CCc1ccc(C(=O)COc2ccc(CC3(C)SC(=O)NC3=O)cc2)nc1 (stereo not drawn) [Compound 10] ; retrieve measured PPARγ ligand binding (Fluormone displacement signal).
Reply | 234 (3)

Ask | Param item = CCc1ccc(CCOc2ccc(CC3(C)SC(=O)NC3=O)cc2)nc1 (stereo not drawn) [Compound 7] ; retrieve measured PPARγ ligand binding (Fluormone displacement signal).
Reply | 237 (7)

Ask | Param item = CCc1ccc(C(COc2ccc(CC3SC(=O)NC3=O)cc2)CC(=O)OC)nc1 (stereo not drawn) [Compound 12] ; retrieve measured PPARγ ligand binding (Fluormone displacement signal).
Reply | 155 (8)

Ask | Param item = CCc1ccc(C(=CC(=O)OC)COc2ccc(CC3SC(=O)NC3=O)cc2)nc1 (stereo not drawn) [Compound 11] ; retrieve measured PPARγ ligand binding (Fluormone displacement signal).
Reply | 229 (10)

Ask | Param item = CCc1ccc(CCOc2ccc(CC3(C)SC(=O)NC3=O)cc2)nc1 (stereo not drawn) [Compound 4] ; retrieve measured PPARγ ligand binding (Fluormone displacement signal).
Reply | 224 (15)

----------
Reported PPARγ ligand binding (Fluormone displacement signal) by item:
Measured on: PPARγ (Homo sapiens, UniProt P37231)
Construct: purchased Invitrogen Corporation, Carlsbad, Calif
Sequence (P37231 238-503 limits assumed): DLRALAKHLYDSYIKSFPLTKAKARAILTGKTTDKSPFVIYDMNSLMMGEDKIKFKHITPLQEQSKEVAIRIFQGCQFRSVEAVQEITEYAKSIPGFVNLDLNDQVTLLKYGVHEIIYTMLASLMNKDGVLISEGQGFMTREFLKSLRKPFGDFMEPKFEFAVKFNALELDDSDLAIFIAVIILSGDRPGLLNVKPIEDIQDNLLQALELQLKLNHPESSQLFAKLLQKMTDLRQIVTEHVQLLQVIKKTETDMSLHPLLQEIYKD
Test details: Commercial PPARγ binding assay (Invitrogen, PPAR-LBD/Fluormone PPAR Green complex)
Test conditions: compound at .3 μM; average (SEM) of three experiments in quadruplicate
Experimental: The ability of several exemplary compounds of the present invention, shown in Table A, to bind to PPARγ was measured using a commercial binding assay (Invitrogen Corporation, Carlsbad, Calif.) that measures the test compounds ability to bind with PPAR-LBD/Fluormone PPAR Green complex. These assays were performed on three occasions with each assay using four separate wells (quadruplicate) at each concentration of tested compound. […]

Completed entries (count: 6):
Compound	Value measured
CCc1ccc([C@@H](O)COc2ccc(CC3SC(=O)NC3=O)cc2)nc1 (stereo partly shown) [Compound 2]	233 (15)
CCc1ccc(C(=CC(=O)OC)COc2ccc(CC3SC(=O)NC3=O)cc2)nc1 (stereo not shown) [Compound 11]	227 (9)
CCc1ccc(C(=O)COc2ccc(CC3SC(=O)NC3=O)cc2)nc1 (stereo not shown) [Compound 1]	232 (8)
CCc1ccc(C(O)COc2ccc(CC3(C)SC(=O)NC3=O)cc2)nc1 (stereo not shown) [Compound 5]	230 (10)
CCc1ccc(C(=CC(=O)OC)COc2ccc(CC3SC(=O)NC3=O)cc2)nc1 (stereo not shown) [Compound 3]	221 (10)
CCc1ccc(CCOc2ccc(CC3(C)SC(=O)NC3=O)cc2)nc1 (stereo not shown) [Compound 6]	246 (9)

# evaluate next
Ask | Param item = CCc1ccc(C(=CCO)COc2ccc(CC3SC(=O)NC3=O)cc2)nc1 (stereo not shown) [Compound 13] ; retrieve measured PPARγ ligand binding (Fluormone displacement signal).
Reply | 243 (10)
